Endpoint name: melting point

[[record]]
molecule = "CC(C)COc1ccc(-n2cc(C(=O)O)cn2)cc1C#N"
result_value = "192 to 194 °C"

[[record]]
molecule = "N#Cc1nn(-c2c(Cl)cccc2Cl)c(N)c1-c1ccco1"
result_value = "223 °C"

[[record]]
molecule = "CNC(=O)Nc1ccc(-c2ccncc2)c(C)n1"
result_value = "213 to 214 °C"


Give the measured melting point for Cc1nc2cc(NC(=O)c3cc4cccnc4n3-c3ccncc3)ccc2s1
236 to 238 °C

Give the measured melting point for CC1(C)Oc2ccncc2[C@@H](Oc2ccccn2)[C@@H]1O (relative stereo)
207 °C

Give the measured melting point for Nc1c(CC(=O)O)cccc1C(=O)c1ccc(F)cc1
136 to 137 °C

Give the measured melting point for O=C1Nc2ccccc2N(C(=O)CCCCl)c2ccccc21
151 to 152 °C

Give the measured melting point for Cc1cccc(NC(=O)N(C)c2nc(-c3ccccc3)c(-c3ccc(=O)n(C(C)C)n3)s2)c1
157 to 158 °C

Give the measured melting point for C[C@H](NC(=O)CCn1cc(C2=C(c3cn(C)c4ccccc34)C(=O)NC2=O)c2ccccc21)C(=O)NCC(=O)N[C@@H](CCCCN)C(N)=O
158 to 160 °C

---

Here the recorded melting point is given for each entry.

Some molecules with known melting point results, for comparison:
[[record]]
molecule = "O=CNc1ccc(-c2cc[nH]n2)cc1"
endpoint_name = "melting point"
result_value = "139 to 141 °C"

[[record]]
molecule = "CC(Nc1nc(-c2ccccc2)cs1)c1ccc(CO)cc1 (stereo not given)"
endpoint_name = "melting point"
result_value = "88 to 90 °C"

[[record]]
molecule = "CC(C)(C)C(NC(=O)c1cccc(Br)c1)Nc1c(Nc2cccnc2Cl)c(=O)c1=O (stereo not given)"
endpoint_name = "melting point"
result_value = "257 to 259 °C"

[[record]]
molecule = "CCCC1=C(C#N)C(c2ccccc2Cl)c2c(n[nH]c2CCC)N1 (stereo not given)"
endpoint_name = "melting point"
result_value = "237 °C"

[[record]]
molecule = "O=C(O)c1cc(OCCCOc2ccc(O)cc2)cc(OCCCOc2ccc(O)cc2)c1"
endpoint_name = "melting point"
result_value = "160 to 162 °C"


Give the measured melting point for COc1cc(C2CCN(C(=O)CN(C)C)CC2)ccc1Nc1ncc2ccc(-c3ccccc3OC)n2n1
78 to 87 °C

Give the measured melting point for O=c1oc2c(Cl)cccc2cc1S(=O)(=O)Nc1ccc(Br)cc1
202 to 204 °C

Give the measured melting point for CCCCCCCCCCCCCCc1onc(C(=O)OC)c1O
92 °C

Give the measured melting point for CNc1nc(OC)ccc1Nc1nc(Nc2cc3c(cc2OC)CCN(CC(=O)N(C)C)CC3)ncc1Cl
191 to 194 °C

Give the measured melting point for COc1ccc(-c2ccc3c(C(N)=O)nn(-c4ccc(S(N)(=O)=O)cc4)c3c2)cc1
258 to 259 °C

Give the measured melting point for C=C(F)c1c[nH]c(=O)[nH]c1=O
235 to 238 °C

Give the measured melting point for COc1cc2nc(N3CCN(c4ccc(O)nn4)CC3)nc(N)c2cc1OC
296 to 297 °C

Give the measured melting point for COc1ccc(C(=O)c2nnc(-c3ccccc3)o2)cc1
152 °C

Give the measured melting point for COC(=O)c1cccc(NC(=O)C=Cc2ccc(OC)c(OC)c2)c1N
144 to 146 °C

Give the measured melting point for CC(C)(C)OC(=O)N1CCN(c2ncccc2C=O)CC1
88 to 89 °C

Give the measured melting point for CC(=O)OCC(CCn1cnc2c(=O)[nH]c(N)nc21)COC(C)=O
202 to 205 °C

Give the measured melting point for CC(=O)O[C@H]1C=C[C@@H](O)C1
48 to 49 °C

Give the measured melting point for COc1ccc2c(NC(C)=O)c(C(=O)c3ccccc3)[nH]c2c1
144 to 146 °C

Give the measured melting point for O=C(O)c1cc(OCc2ccccc2)c(C(=O)c2c(OCc3ccccc3)cccc2C(=O)OCc2ccccc2)c(OCc2ccccc2)c1
151 to 156 °C

Give the measured melting point for CCOC(=O)Nn1cccc1C(=O)c1ccccc1Cl
90 to 92 °C
